- Tested on: ABUTH
- RUN DESCRIPTION: Post-emergence Test, glasshouse, ABUTH
- Assay type: in vivo
- SETTINGS: 250 g/ha, evaluated after 13 days
This section presents compounds with their documented percentage damage caused to the plant, five-point scale, ABUTH values.

Need percentage damage caused to the plant, five-point scale, ABUTH of FC(F)(F)CCCn1nc(Br)c2cccc(Oc3ncc(Cl)cn3)c21 , thanks.
5 (5=81-100%)

Further cases:
Need percentage damage caused to the plant, five-point scale, ABUTH of FC(F)(F)CCCn1nc(Cl)c2ccc(Br)c(Oc3ncc(Cl)cn3)c21 , thanks.
1 (1=0-20%)

Repeat for the following compound: FC(F)(F)CCCn1ncc2c(Cl)ccc(Oc3ncc(Cl)cn3)c21
5 (5=81-100%)

Repeat for the following compound: CCCCCCn1nc(Cl)c2cccc(Oc3ncc(Cl)cn3)c21
3 (3=41-60%)

Repeat for the following compound: FC(F)(F)CCCn1nc(Br)c2cc(Br)cc(Oc3ncc(Cl)cn3)c21
2 (2=21-40%)

Repeat for the following compound: COc1cnc(Oc2cccc3c(Cl)nn(CCCC(F)(F)F)c23)nc1
4 (4=61-80%)

Repeat for the following compound: FC(F)(F)CCCn1ncc2cc(Br)cc(Oc3ncc(Cl)cn3)c21
1 (1=0-20%)

Repeat for the following compound: FC(F)(F)CCCn1ccc2cccc(Oc3ncc(Cl)cn3)c21
2 (2=21-40%)

Repeat for the following compound: N#Cc1cc(Cl)cnc1Oc1cc(Cl)cc2cnn(CCCC(F)(F)F)c12
1 (1=0-20%)

The reported measurements were obtained from patent US20230002357A1.
